molecular target: CRBN-DDB1 (Homo sapiens (Human), UniProt Q96SW2); test: Compound binding to CRBN by HTRF assay
Sequence (Q96SW2 whole entry): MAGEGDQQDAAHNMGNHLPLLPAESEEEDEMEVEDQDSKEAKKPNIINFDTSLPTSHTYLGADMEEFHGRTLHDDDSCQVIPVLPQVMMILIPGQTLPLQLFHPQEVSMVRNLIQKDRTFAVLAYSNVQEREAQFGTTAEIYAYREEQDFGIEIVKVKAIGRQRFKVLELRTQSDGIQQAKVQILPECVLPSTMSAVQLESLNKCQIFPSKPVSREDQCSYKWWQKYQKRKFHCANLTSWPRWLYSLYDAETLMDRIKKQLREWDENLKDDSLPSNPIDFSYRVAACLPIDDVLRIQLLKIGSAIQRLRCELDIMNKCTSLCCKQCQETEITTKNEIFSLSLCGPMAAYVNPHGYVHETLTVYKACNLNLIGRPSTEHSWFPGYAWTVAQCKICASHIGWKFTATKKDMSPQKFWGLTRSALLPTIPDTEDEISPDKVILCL
Sequence (Q16531 whole entry partner): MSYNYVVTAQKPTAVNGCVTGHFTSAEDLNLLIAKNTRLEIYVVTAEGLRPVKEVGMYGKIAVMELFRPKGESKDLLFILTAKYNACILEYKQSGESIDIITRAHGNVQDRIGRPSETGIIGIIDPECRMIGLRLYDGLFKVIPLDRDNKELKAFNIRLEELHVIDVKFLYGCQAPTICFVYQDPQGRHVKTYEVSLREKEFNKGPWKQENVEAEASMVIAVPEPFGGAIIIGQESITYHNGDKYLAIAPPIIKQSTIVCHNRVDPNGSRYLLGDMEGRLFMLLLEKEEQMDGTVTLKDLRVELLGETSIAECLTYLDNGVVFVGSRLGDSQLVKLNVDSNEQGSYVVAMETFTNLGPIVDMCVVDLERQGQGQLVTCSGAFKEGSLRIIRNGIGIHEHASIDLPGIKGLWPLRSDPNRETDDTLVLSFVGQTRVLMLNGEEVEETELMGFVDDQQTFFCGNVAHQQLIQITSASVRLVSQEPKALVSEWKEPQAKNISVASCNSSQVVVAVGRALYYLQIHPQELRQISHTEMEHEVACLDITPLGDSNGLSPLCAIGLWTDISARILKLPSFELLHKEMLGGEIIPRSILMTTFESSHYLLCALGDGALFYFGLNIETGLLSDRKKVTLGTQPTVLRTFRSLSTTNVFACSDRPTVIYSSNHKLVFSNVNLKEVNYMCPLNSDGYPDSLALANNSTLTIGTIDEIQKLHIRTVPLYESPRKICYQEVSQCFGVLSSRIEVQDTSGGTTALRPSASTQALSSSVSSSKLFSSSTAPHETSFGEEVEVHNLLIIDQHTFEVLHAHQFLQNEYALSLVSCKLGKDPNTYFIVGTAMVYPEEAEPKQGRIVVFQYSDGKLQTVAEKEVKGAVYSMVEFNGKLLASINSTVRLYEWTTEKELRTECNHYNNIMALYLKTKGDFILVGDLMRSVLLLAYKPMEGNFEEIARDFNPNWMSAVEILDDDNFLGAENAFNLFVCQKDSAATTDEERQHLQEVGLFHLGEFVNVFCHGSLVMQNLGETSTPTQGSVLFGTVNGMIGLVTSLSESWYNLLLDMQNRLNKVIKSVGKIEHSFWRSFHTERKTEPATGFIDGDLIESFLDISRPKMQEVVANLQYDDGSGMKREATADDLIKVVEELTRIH
recorded metric: EC50 (nM)

Field: example entries. Status: answers known.
Cc1cnc(C(C)(CO)C(=O)NCc2cc(Cl)c(C3CCC(=O)NC3=O)c(Cl)c2)nc1 (stereo not drawn) = 140
COCc1ccc(C(C)(C)C(=O)NCc2cc(Cl)c(C3CCC(=O)NC3=O)c(Cl)c2)nn1 (stereo not drawn) = 150
CC(C)(C(=O)NCc1cc(Cl)c(C2CCC(=O)NC2=O)c(Cl)c1)c1cnc(OC(F)F)cn1 (stereo not drawn) = 50
CN(C)c1ccc(C(C)(C)C(=O)NCc2cc(Cl)c(C3CCC(=O)NC3=O)c(Cl)c2)cc1 (stereo not drawn) = 140
CC(C)(C(=O)NCc1cc(Cl)c(C2CCC(=O)NC2=O)c(Cl)c1)c1cnc(CC(F)F)cn1 (stereo not drawn) = 150
CC(C)(C(=O)NCc1cc(Cl)c(C2CCC(=O)NC2=O)c(Cl)c1)c1cc(F)nc(F)c1 (stereo not drawn) = 170

A. CC(C)(C(=O)NCc1cc(Cl)c(C2CCC(=O)NC2=O)c(Cl)c1)c1nccc(C(F)(F)F)n1 (stereo not drawn)
B. CC(C)(C(=O)NCc1ccc(C2CCC(=O)NC2=O)c(Cl)c1)c1ccccc1F (stereo not drawn)
Query string: Consider entries A and B . Which has the numerically lower EC50? Identify your pick by its label.
Result string: A

----------
biological target: CRBN-DDB1 (Homo sapiens (Human), UniProt Q96SW2); assay: Compound binding to CRBN by HTRF assay; conditions: HTRF class; Cereblon binding
# maps each entry to its EC50

CC(C)(C(=O)NCc1cc(Cl)c(C2CCC(=O)NC2=O)c(Cl)c1)c1ccccc1 (stereo not shown) = ≤ 100 nM
Cc1nnc(C(C)(C)C(=O)NCc2cc(Cl)c(C3CCC(=O)NC3=O)c(Cl)c2)o1 (stereo not shown) = 100 to 1000 nM
COc1cnc(C(C)(C)C(=O)NCc2cc(Cl)c(C3CCC(=O)NC3=O)c(Cl)c2)cn1 (stereo not shown) = ≤ 100 nM

With those in mind, consider the next molecule.
Query string: Consider the molecule CC(F)(F)c1ccc(C(C)(C)C(=O)NCc2cc(F)c(C3CCC(=O)NC3=O)c(Cl)c2)nn1 (stereo not shown) and give its measured EC50.
Result string: 100 to 1000 nM

----------
biological target: NEK7 (Homo sapiens (Human), UniProt Q8TDX7+Q96SW2); test: NEK7 NanoBiT degradation assay in Cal51 NEK7 NanoBiT cell line; type: cell-based; details: NEK7 degradation, Cal51 NEK7 NanoBiT cells, 24 hours; read-out: NanoBiT DC50
Sequence (Q8TDX7 whole entry): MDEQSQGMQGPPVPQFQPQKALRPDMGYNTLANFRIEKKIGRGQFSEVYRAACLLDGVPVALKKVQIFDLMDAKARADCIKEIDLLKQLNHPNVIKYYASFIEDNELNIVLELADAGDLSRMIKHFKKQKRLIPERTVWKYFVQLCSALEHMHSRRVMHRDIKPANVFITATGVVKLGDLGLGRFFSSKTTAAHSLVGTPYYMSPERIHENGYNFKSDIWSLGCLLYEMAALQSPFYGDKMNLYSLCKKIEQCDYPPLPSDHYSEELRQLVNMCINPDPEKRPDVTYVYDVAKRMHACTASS
Sequence (Q96SW2 whole entry): as the sequence (Q96SW2 whole entry) above
Sequence (Q16531 2-1140 partner): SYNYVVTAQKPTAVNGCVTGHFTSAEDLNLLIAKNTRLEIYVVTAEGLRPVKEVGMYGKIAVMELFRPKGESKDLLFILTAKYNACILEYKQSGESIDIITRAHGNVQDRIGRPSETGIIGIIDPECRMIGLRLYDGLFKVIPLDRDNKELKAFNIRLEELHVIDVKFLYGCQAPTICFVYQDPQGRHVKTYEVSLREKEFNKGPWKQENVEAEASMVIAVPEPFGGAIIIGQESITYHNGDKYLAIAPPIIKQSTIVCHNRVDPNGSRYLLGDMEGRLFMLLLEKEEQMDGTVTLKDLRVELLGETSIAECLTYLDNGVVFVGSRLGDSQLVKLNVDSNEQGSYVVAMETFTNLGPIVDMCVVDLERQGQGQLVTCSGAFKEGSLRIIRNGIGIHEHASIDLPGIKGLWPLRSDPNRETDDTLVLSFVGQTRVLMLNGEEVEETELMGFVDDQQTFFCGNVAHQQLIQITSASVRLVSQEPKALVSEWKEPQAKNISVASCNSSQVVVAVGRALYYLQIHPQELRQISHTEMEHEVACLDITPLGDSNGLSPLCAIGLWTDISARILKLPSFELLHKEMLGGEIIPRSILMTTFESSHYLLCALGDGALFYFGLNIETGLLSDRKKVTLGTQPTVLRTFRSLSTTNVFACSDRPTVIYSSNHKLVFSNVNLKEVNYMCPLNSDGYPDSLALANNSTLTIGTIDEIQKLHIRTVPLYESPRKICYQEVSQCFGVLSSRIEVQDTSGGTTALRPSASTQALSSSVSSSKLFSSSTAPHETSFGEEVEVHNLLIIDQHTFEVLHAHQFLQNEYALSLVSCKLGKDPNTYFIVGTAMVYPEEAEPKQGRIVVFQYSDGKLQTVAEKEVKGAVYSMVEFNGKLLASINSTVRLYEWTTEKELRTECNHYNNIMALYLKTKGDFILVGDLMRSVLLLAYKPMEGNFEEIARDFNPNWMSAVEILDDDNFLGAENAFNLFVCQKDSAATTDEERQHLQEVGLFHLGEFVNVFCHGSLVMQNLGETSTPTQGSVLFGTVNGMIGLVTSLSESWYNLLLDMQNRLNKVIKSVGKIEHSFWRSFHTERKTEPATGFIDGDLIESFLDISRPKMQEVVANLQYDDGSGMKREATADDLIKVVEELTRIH
# maps each entry to its DC50

CC(C)(C(=O)NCc1cc(Cl)c(C2CCC(=O)NC2=O)c(Cl)c1)c1ccc(F)cc1 (stereo not shown) = ≤ 100 nM

Query string: Consider the compound Cc1conc1C(C)(C)C(=O)NCc1cc(Cl)c(C2CCC(=O)NC2=O)c(Cl)c1 (stereo not shown) and give its measured DC50.
Result string: ≤ 100 nM

Query string: Consider the compound CC(C)(C(=O)NCc1cc(Cl)c(C2CCC(=O)NC2=O)c(Cl)c1)c1cc2ocnc2cn1 (stereo not shown) and give its measured DC50.
Result string: ≤ 100 nM

Query string: Consider the compound CC(C)(C(=O)NCc1cc(Cl)c([C@]2(F)CCC(=O)NC2=O)c(Cl)c1)c1ccccc1 (single isomer, unassigned) and give its measured DC50.
Result string: 100 to 1000 nM

Source listed as patent US20250243180A1.
